The values you see were collected from paper PMC2923275.

Please respond with reported host-toxicity (survival of uninfected host cells) for every item in the list.
test system: uninfected human foreskin fibroblasts; experiment: Host toxicity, MTT assay on uninfected host cells; details: infection: None, 50 μM compound
Don't forget the unit after the value.

Request: // query host-toxicity (survival of uninfected host cells) value for entry Cc1ccccc1CSc1ncnc2c1ncn2C1CC(CO)C(O)C1O (stereo not shown)
Result: 99.2%

Request: Any idea what its host-toxicity (survival of uninfected host cells) is? The molecule is COC(=O)c1ccc(CSc2ncnc3c2ncn3C2CC(CO)C(O)C2O)cc1 (stereo not shown)
Result: 87.1%

Request: Could you share which host-toxicity (survival of uninfected host cells) value was measured for OCC1CC(n2cnc3c(SCc4cccc(C(F)(F)F)c4)ncnc32)C(O)C1O (stereo not shown) ?
Result: 90.6%

Request: Dear colleague, I am looking for the recorded host-toxicity (survival of uninfected host cells) of the following molecule: OCC1CC(n2cnc3c(SCc4ccccc4)ncnc32)C(O)C1O (stereo not shown)
Result: 94.3%

Request: Entry OCC1CC(n2cnc3c(SCc4ccc(Cl)cc4Cl)ncnc32)C(O)C1O (stereo not shown) has what host-toxicity (survival of uninfected host cells)?
Result: 90.6%

Request: Recorded host-toxicity (survival of uninfected host cells) for O=[N+]([O-])c1ccc(CSc2ncnc3c2ncn3C2CC(CO)C(O)C2O)cc1 (stereo not shown) , please?
Result: 100%

Request: For the molecule OCC1CC(n2cnc3c(SCc4ccc(F)cc4)ncnc32)C(O)C1O (stereo not shown) , what host-toxicity (survival of uninfected host cells) is on record?
Result: 100%

###

tested on: uninfected human foreskin fibroblasts; assay: Host toxicity, MTT assay on uninfected host cells; conditions: infection: None, 25 μM compound
ASSAY_METRIC: host-toxicity (survival of uninfected host cells) (%)
Express it in %; write the number only.

Request: Name the reported host-toxicity (survival of uninfected host cells) value associated with the molecule O=[N+]([O-])c1ccc(CSc2ncnc3c2ncn3C2CC(CO)C(O)C2O)cc1 (stereo not drawn)
Result: 100

Request: So what does the record say about host-toxicity (survival of uninfected host cells) for COC(=O)c1ccc(CSc2ncnc3c2ncn3C2CC(CO)C(O)C2O)cc1 (stereo not drawn) ?
Result: 88.7

Request: Query (molecule): OCC1CC(n2cnc3c(SCc4ccc(Cl)cc4Cl)ncnc32)C(O)C1O (stereo not drawn) ; field requested: host-toxicity (survival of uninfected host cells)
Result: 100

Request: Give its host-toxicity (survival of uninfected host cells) value. Item: O=[N+]([O-])c1cccc(CSc2ncnc3c2ncn3C2CC(CO)C(O)C2O)c1 (stereo not drawn)
Result: 100

Request: What host-toxicity (survival of uninfected host cells) value was documented for this molecule, Cc1ccc(CSc2ncnc3c2ncn3C2CC(CO)C(O)C2O)c(C)c1C (stereo not drawn) ?
Result: 90.6

Request: Fill in the blank: the reported host-toxicity (survival of uninfected host cells) of OCC1CC(n2cnc3c(SCc4ccccc4Cl)ncnc32)C(O)C1O (stereo not drawn) is ____.
Result: 100

Request: Reported host-toxicity (survival of uninfected host cells), molecule OCC1CC(n2cnc3c(SCc4ccc(Cl)cc4)ncnc32)C(O)C1O (stereo not drawn) : ____
Result: 100

Request: Look up host-toxicity (survival of uninfected host cells) for this molecule: N#Cc1ccc(CSc2ncnc3c2ncn3C2CC(CO)C(O)C2O)cc1 (stereo not drawn)
Result: 100

Request: # get_value(readout='host-toxicity (survival of uninfected host cells)', item= OCC1CC(n2cnc3c(SCc4c(F)cccc4Cl)ncnc32)C(O)C1O (stereo not drawn) )
Result: 100

Request: Quick one: host-toxicity (survival of uninfected host cells) for Nc1ccc(S(=O)(=O)Nc2ncccn2)cc1 [Compound 23, Sulfadiazine, reference compound] ?
Result: 99.8

Request: // lookup host-toxicity (survival of uninfected host cells) for COc1ccc(CSc2ncnc3c2ncn3C2CC(CO)C(O)C2O)cc1 (stereo not drawn)
Result: 94.3

Request: Data request, read-out host-toxicity (survival of uninfected host cells), for OCC1CC(n2cnc3c(SCc4ccccc4F)ncnc32)C(O)C1O (stereo not drawn)
Result: 100

###

system: wild type (RH) strain of T. gondii; test: Anti-toxoplasmic activity in tissue culture; type: cell-based, Toxoplasma gondii; details: wild type (RH) in human fibroblasts, 10 μM compound
Recorded percent survival of parasite split into classes LOW (below 20%), MEDIUM (20% to below 50%), HIGH (50% or more)

Request: # bin lookup: classify Cc1ccccc1CSc1ncnc2c1ncn2C1CC(CO)C(O)C1O (stereo not shown) by its percent survival of parasite
Result: MEDIUM

Request: Hey, which category is OCC1CC(n2cnc3c(SCc4ccc(F)cc4)ncnc32)C(O)C1O (stereo not shown) in, do you know?
Result: HIGH

Request: Given N#Cc1ccc(CSc2ncnc3c2ncn3C2CC(CO)C(O)C2O)cc1 (stereo not shown) , name the class its percent survival of parasite places it in.
Result: HIGH

Request: Entry OCC1CC(n2cnc3c(SCc4c(F)cccc4Cl)ncnc32)C(O)C1O (stereo not shown) belongs to which category?
Result: LOW

Request: Which category does the recorded percent survival of parasite put OCC1CC(n2cnc3c(SCc4ccc(Br)cc4)ncnc32)C(O)C1O (stereo not shown) in?
Result: MEDIUM

Request: Note: place this compound into its band. Item: OCC1CC(n2cnc3c(SCc4ccc(Cl)cc4)ncnc32)C(O)C1O (stereo not shown)
Result: LOW

Request: Classify this compound: COC(=O)c1ccc(CSc2ncnc3c2ncn3C2CC(CO)C(O)C2O)cc1 (stereo not shown)
Result: LOW

Request: Category of OCC1CC(n2cnc3c(SCc4ccc(Cl)cc4Cl)ncnc32)C(O)C1O (stereo not shown) :
Result: MEDIUM

Request: Place this compound in its band: OCC1CC(n2cnc3c(SCc4cccc(C(F)(F)F)c4)ncnc32)C(O)C1O (stereo not shown)
Result: MEDIUM

Request: For COc1ccc(CSc2ncnc3c2ncn3C2CC(CO)C(O)C2O)cc1 (stereo not shown) , which percent survival of parasite bin applies?
Result: LOW

Request: The entry to classify is OCC1CC(n2cnc3c(SCc4ccc(Cl)c(Cl)c4)ncnc32)C(O)C1O (stereo not shown) ; which class holds it?
Result: LOW

Request: Please let me know in which category the item CS(=O)(=O)c1ccc(CSc2ncnc3c2ncn3C2CC(CO)C(O)C2O)cc1 (stereo not shown) belongs.
Result: MEDIUM

Request: Form: Item = OCC1CC(n2cnc3c(SCc4ccccc4)ncnc32)C(O)C1O (stereo not shown) ; Class = ?
Result: MEDIUM

Request: Looking at CCc1nc(N)nc(N)c1-c1ccc(Cl)cc1 [Compound 24, Pyrimethamine, reference compound] , which class would you pick?
Result: HIGH

Request: Which class holds O=[N+]([O-])c1ccc(CSc2ncnc3c2ncn3C2CC(CO)C(O)C2O)cc1 (stereo not shown) ?
Result: HIGH

###

system: wild type (RH) strain of T. gondii; test: Anti-toxoplasmic activity in tissue culture; assay type: cell-based, Toxoplasma gondii; conditions: wild type (RH) in human fibroblasts, 25 μM compound
ASSAY_METRIC: percent survival of parasite (%)
// units = %; emit number, no label

Request: Entry under review: OCC1CC(n2cnc3c(SCc4ccc(Br)cc4)ncnc32)C(O)C1O (stereo not shown) . Reported percent survival of parasite?
Result: 1.2

Request: What value of percent survival of parasite has been reported for the following compound? Cc1ccccc1CSc1ncnc2c1ncn2C1CC(CO)C(O)C1O (stereo not shown)
Result: 7.6

Request: Record request: percent survival of parasite value, item CCc1nc(N)nc(N)c1-c1ccc(Cl)cc1 [Compound 24, Pyrimethamine, reference compound]
Result: 25.1

Request: Please look up its percent survival of parasite: CS(=O)(=O)c1ccc(CSc2ncnc3c2ncn3C2CC(CO)C(O)C2O)cc1 (stereo not shown)
Result: 0.0

Request: # get_value(readout='percent survival of parasite', item= Cc1ccc(CSc2ncnc3c2ncn3C2CC(CO)C(O)C2O)c(C)c1C (stereo not shown) )
Result: 0.0

Request: Need percent survival of parasite of COc1ccc(CSc2ncnc3c2ncn3C2CC(CO)C(O)C2O)cc1 (stereo not shown) , thanks.
Result: 0.0

Request: What percent survival of parasite value was documented for this compound, OCC1CC(n2cnc3c(SCc4cccc(C(F)(F)F)c4)ncnc32)C(O)C1O (stereo not shown) ?
Result: 6.3

Request: Return reported percent survival of parasite; argument: OCC1CC(n2cnc3c(SCc4ccc(Cl)cc4Cl)ncnc32)C(O)C1O (stereo not shown)
Result: 0.0

Request: Sample OCC1CC(n2cnc3c(SCc4ccc(F)cc4)ncnc32)C(O)C1O (stereo not shown) — what was its percent survival of parasite?
Result: 12.4

Request: Bench note: what percent survival of parasite did OCC1CC(n2cnc3c(SCc4ccc(OC(F)(F)F)cc4)ncnc32)C(O)C1O (stereo not shown) show?
Result: 8.1
